systemUnderTest: T1, orthogonal hCD122 receptor (hoRb), hCD122 with H133D and Y134F (human, UniProt P14784 27-550)
T1 sequence: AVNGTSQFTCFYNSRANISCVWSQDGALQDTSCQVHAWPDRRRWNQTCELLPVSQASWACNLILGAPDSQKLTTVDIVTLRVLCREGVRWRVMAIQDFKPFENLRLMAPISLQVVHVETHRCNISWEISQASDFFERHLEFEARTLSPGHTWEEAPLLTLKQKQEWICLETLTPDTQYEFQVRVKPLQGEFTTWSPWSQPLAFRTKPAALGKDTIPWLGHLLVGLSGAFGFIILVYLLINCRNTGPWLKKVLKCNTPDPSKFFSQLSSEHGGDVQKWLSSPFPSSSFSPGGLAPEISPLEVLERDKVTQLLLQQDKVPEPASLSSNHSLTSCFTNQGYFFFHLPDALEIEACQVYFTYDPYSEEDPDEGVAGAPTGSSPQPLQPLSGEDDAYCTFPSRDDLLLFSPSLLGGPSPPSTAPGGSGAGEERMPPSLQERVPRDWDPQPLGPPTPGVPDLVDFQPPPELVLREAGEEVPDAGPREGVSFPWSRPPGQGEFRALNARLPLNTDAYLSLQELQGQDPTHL
method: cell-based or functional assay
property: NKL Ortho Proliferation Signal 1:10

SQVLDA (ligand) APTSSSTKKTQLQLSQLLVLLDAILNGINNYKNPKLTRMLTFKFYMPKKATELKHLQCLEEELKPLEEVLNLAQSKNFHLRPRDLISNINVIVLELKGSETTFMCEYADETATIVEFLNRWITFCQSIISTLT | 22700
TQVLKA (ligand) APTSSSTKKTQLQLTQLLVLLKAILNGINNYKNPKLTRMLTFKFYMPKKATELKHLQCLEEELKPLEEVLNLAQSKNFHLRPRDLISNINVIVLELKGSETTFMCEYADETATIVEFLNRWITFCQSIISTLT | 57900
SQVLEA (ligand) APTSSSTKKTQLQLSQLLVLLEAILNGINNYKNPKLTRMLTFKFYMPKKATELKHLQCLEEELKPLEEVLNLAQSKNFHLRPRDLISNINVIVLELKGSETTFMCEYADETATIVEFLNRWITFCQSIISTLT | 18200
T3C, SQVLKA (ligand) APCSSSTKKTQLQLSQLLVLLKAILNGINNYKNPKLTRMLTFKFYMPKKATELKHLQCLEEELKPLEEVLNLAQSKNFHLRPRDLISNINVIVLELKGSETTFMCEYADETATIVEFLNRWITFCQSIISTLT | 70800

[1] ΔP2, SQVLKA (ligand) ATSSSTKKTQLQLSQLLVLLKAILNGINNYKNPKLTRMLTFKFYMPKKATELKHLQCLEEELKPLEEVLNLAQSKNFHLRPRDLISNINVIVLELKGSETTFMCEYADETATIVEFLNRWITFCQSIISTLT
[2] SQVLTA (ligand) APTSSSTKKTQLQLSQLLVLLTAILNGINNYKNPKLTRMLTFKFYMPKKATELKHLQCLEEELKPLEEVLNLAQSKNFHLRPRDLISNINVIVLELKGSETTFMCEYADETATIVEFLNRWITFCQSIISTLT
[3] Q126D, SQVLKA (ligand) APTSSSTKKTQLQLSQLLVLLKAILNGINNYKNPKLTRMLTFKFYMPKKATELKHLQCLEEELKPLEEVLNLAQSKNFHLRPRDLISNINVIVLELKGSETTFMCEYADETATIVEFLNRWITFCDSIISTLT
### Prompt Reorder the items by NKL Ortho Proliferation Signal 1:10, least to greatest. Return value: ordered labels per request.
### Response 3, 2, 1

Where do these numbers come from? They come from patent US20210196796A1.
